kcat by entry:
Substrate: O=CC(O)COP(=O)(O)O
Experimental Details: coupled alpha-glycerophosphate dehydrogenase assay, A340
Format: biochemical, Synechocystis sp. PCC 6803
Condition Parameters: 0.1 M TEA pH 7.4, 10 mM EDTA, 0.2 mM NADH, G3P 0-5 mM, G3P to DHAP

{"Protein": "SyTPI (Synechocystis sp. PCC 6803 substr. Kazusa; C127A) (protein, full length, codon-optimised, E. coli BL21(DE3) delta-tpi; His tag cut by PreScission, extra Gly-Pro-His before Met1; homodimer 54 kDa) MRKIIIAGNWKMHKTQAEAQAFLQGFKPLIEDAAESREVVLCVPFTDLSGMSQQLHGGRVRLGAQNVHWEASGAYTGEISAAMLTEIGIHYVVIGHSERRQYFGETDETANLRVLAAQKAGLIPILAVGESKAQRDAGETEQVIVDQVKKGLVNVDQSNLVIAYEPIWAIGTGDTCAATEANRVIGLIREQLTNSQVTIQYGGSVNANNVDEIMAQPEIDGALVGGASLEPQSFARIVNFQP", "kcat (s⁻¹)": 1770}
{"Protein": "SyTPI (Synechocystis sp. PCC 6803 substr. Kazusa; C42A) (protein, full length, codon-optimised, E. coli BL21(DE3) delta-tpi; His tag cut by PreScission, extra Gly-Pro-His before Met1; homodimer 54 kDa) MRKIIIAGNWKMHKTQAEAQAFLQGFKPLIEDAAESREVVLAVPFTDLSGMSQQLHGGRVRLGAQNVHWEASGAYTGEISAAMLTEIGIHYVVIGHSERRQYFGETDETANLRVLAAQKAGLIPILCVGESKAQRDAGETEQVIVDQVKKGLVNVDQSNLVIAYEPIWAIGTGDTCAATEANRVIGLIREQLTNSQVTIQYGGSVNANNVDEIMAQPEIDGALVGGASLEPQSFARIVNFQP", "kcat (s⁻¹)": 1780}
{"Protein": "SyTPI (Synechocystis sp. PCC 6803 substr. Kazusa; C176S/C42A) (protein, full length, codon-optimised, E. coli BL21(DE3) delta-tpi; His tag cut by PreScission, extra Gly-Pro-His before Met1; homodimer 54 kDa) MRKIIIAGNWKMHKTQAEAQAFLQGFKPLIEDAAESREVVLAVPFTDLSGMSQQLHGGRVRLGAQNVHWEASGAYTGEISAAMLTEIGIHYVVIGHSERRQYFGETDETANLRVLAAQKAGLIPILCVGESKAQRDAGETEQVIVDQVKKGLVNVDQSNLVIAYEPIWAIGTGDTSAATEANRVIGLIREQLTNSQVTIQYGGSVNANNVDEIMAQPEIDGALVGGASLEPQSFARIVNFQP", "kcat (s⁻¹)": 2130}
